B1: Retinoic acid receptor beta, residues 85 to 161; numbered along this chain, P10826 (parent)
chain: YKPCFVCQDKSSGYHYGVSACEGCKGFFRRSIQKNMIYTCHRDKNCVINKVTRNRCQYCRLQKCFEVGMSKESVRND

Variants of: B1
experimental details: abundance fitness (aPCA) (normalised: wild type 0, dead -1); higher = more abundant; growth selection in yeast, the domain comes from the species named
cond: Homo sapiens
Listed next: entries and their corresponding abundance fitness.
Enter a number only.

Ask: Please report the recorded abundance fitness for N35V .
Result: -0.184

Ask: Please report the recorded abundance fitness for C21V .
Result: -0.881

Ask: Please report the recorded abundance fitness for Y38W .
Result: -0.282

Ask: Please report the recorded abundance fitness for K44G .
Result: 0.035

Ask: Please report the recorded abundance fitness for G13N .
Result: -0.145

Ask: Please report the recorded abundance fitness for D9N .
Result: -0.828

Ask: Please report the recorded abundance fitness for N49A .
Result: -0.284

Ask: Please report the recorded abundance fitness for G17E .
Result: -0.08

Ask: Please report the recorded abundance fitness for K50S .
Result: 0.231

Ask: Please report the recorded abundance fitness for Y16I .
Result: -0.178

Ask: Please report the recorded abundance fitness for H15Y .
Result: 0.05

Ask: Please report the recorded abundance fitness for S11V .
Result: -0.221

Ask: Please report the recorded abundance fitness for C40V .
Result: -0.867

Ask: Please report the recorded abundance fitness for L61R .
Result: -0.8

Ask: Please report the recorded abundance fitness for Q62G .
Result: -0.317

Ask: Please report the recorded abundance fitness for A20L .
Result: -0.112

Ask: Please report the recorded abundance fitness for I37C .
Result: -0.204

Ask: Please report the recorded abundance fitness for D9F .
Result: -0.65
